TARGET UNDER TEST: huCTLA4 (Homo sapiens, UniProt P16410)
Sequence (P16410 36-223): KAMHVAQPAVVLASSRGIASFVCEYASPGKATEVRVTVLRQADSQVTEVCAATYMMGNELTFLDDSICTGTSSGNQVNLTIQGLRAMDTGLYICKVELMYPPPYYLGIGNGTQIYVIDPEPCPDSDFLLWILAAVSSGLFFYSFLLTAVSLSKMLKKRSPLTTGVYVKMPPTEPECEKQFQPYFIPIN
PROCEDURE SUMMARY: Flow binding to CHO cells stably expressing CTLA4
Parameters: huCTLA4 and huPD-L1, full-length mammalian surface expression constructs were generated; expressed in transfected cells; host or cells: CHO cells, lentiviral transduction, sorted to >98% purity
MEASUREMENT CONDITIONS: Table E11; 33.3 nM; listed as WT CD80 ECD-Fc = 1.0
PARAMETER: CTLA4 Fold change to WT CD80
One number for each entry.

Batch request: CTLA4 Fold change to WT CD80 per item, same order as input.
1. T13R/Q33R/E35D/M47L/V68M/L85M (protein, CD80 v382 ECD) VIHVTKEVKEVARLSCGHNVSVEELAQTRIYWRKDKKMVLTMMSGDLNIWPEYKNRTIFDITNNLSIMILALRPSDEGTYECVVMKYEKDAFKREHLAEVTLSVKADFPTPSISDFETPTSNIRRIICSTSGGFPEPHLSWLENGEELNAINTTVSQDPETELYAVSSKLDFNMTTNHSFMCLIKYGHLRVNQTFNWNTTKQEHFPDN
2. T13R/Q33R/E35D/M38I/M47L/V68M (protein, UniProt P33681 35-288, looked up, variant T13R Q33R E35D M38I M47L V68M) T-lymphocyte activation …: VIHVTKEVKEVARLSCGHNVSVEELAQTRIYWRKDKKIVLTMMSGDLNIWPEYKNRTIFDITNNLSIMILALRPSDEGTYECVVLKYEKDAFKREHLAEVTLSVKADFPTPSISDFEIPTSNIRRIICSTSGGFPEPHLSWLENGEELNAINTTVSQDPETELYAVSSKLDFNMTTNHSFMCLIKYGHLRVNQTFNWNTTKQEHFPDNLLPSWAITLISVNGIFVICCLTYCFAPRCRERRRNERLRRESVRPV

## Output
1: 7.7; 2: 0.1
